assay: yeast display, Sf9 membrane polyspecificity reagent, FACS + sequencing; frameworks hold sequencing errors
property: polyreactivity (PSR sort gate)

- QVQLVESGGGLVQAGGSLRLSCAASGRTFVYYAMGWYRQAPGKERELVATITRSGGSTYYADSVKGRFTISRDNAKNTVYLQMNSLKPEDTAVYYCAVLYWRPGYDYWGQGTQVTVSS: high polyreactivity
- QVQIVESGGGLVQAGGSLRLSCAASGFIFYFYAMGWYRQAPGKERELVATITRRDDSTYYADSVKGRFTISRDNAKNTVYLQMNSLKPEDTAVYYCNADFWLLSEYDYWGQGTQVTVSS: low polyreactivity
- QVQLEESGGGLVQAGGSLRLSCAASGRIFLYNAMGWYRQAPGKERELVAAISRSGGSTYYADSVKGRFTISRDNAKNTVYLQMNSLKPEDTAVYYCAVGSPYGCRAPWVRGGDYWGQGTQVTVSS: high polyreactivity
- HVQLQERGGGLVQAGGSLRLSCAASGSIFQATYMGWYRQAPGKEREFVASITYGSITNYADSVKGRFTIGRDNAKDTLYLQMNSLKPEDTAVYYCAVDRHYIPAFHYWGQCTQVTVSS: low polyreactivity
- QVQLVESGGGLVQAGGSLRLSCAASGIIFLWYAMGWYRQAPGKERELVAAISRTGSSTYYADSVKGRFTISRDNAKNTVYLQMNSLKPEDTAVYYCAAAYYSKRSWRFDYWGQGTQVTVSS: high polyreactivity

Task: I would be grateful if you could share the reported polyreactivity (PSR sort gate) for QVQLVESGGGLVQAGGSLRLSCAASGITSRPNAMGWYRQAPGKERELVAAISGSGGRTYYADSVKGRFTISRDNAKNTVYLQMNSLKPEDTAVYYCNAVGGGRWYEYWGLGTQVTVSS .
Output: high polyreactivity

Task: I would be grateful if you could share the reported polyreactivity (PSR sort gate) for QVQLVESGGGLVQAGGSLRLSCAASGRIFSFYAMGWKRQAPGKERELVAAITWGDGSTYYADSVKGRFTISRDNAKNTVYLQMNSLKPEDTAVYYCNKTYIDTTVYDVIMDYWGQGTQVTVSS .
Output: low polyreactivity

Task: I would be grateful if you could share the reported polyreactivity (PSR sort gate) for QVQLVESGGGLVQAGGSLRLSCAASGFTFGFYAMGWYRQAPGEEWELVATISSAGSTTYADSVKGRFTLSRDNAKHTVYLQMNSLKPEETAVYYCATRRWSWPQFRTGDYWGQGTQVTVSS .
Output: high polyreactivity

Task: I would be grateful if you could share the reported polyreactivity (PSR sort gate) for QVQLVESGGGRDQAGGSLRLSCAASGLTSYSNAMGWFRQAPGKERELVAAISRSGGSTYYADSVKGRFTISRDTAKNSVYLQMISLKAEDSAFYYCAASIWVYLLGGGYSDYDYWGQGTQETVSS .
Output: low polyreactivity

Task: I would be grateful if you could share the reported polyreactivity (PSR sort gate) for QVQLVESGGGLVQAGGSLRLSCAASGFTIPVYAMGWYRQAPGKEMELVADITESGDSTYYADSVKGRFTISRDNAKNTVYLQMNSLKPEDTAVYYCAADGGWFWSLFYTFAFDYCGQGTQVTVSS .
Output: low polyreactivity

Task: I would be grateful if you could share the reported polyreactivity (PSR sort gate) for QVQLVESGGGLVQAGGSLRLICAASGSTFERYAMGWYRQAPGKERELVAAIDSRSGSTSYADSVKGRFTISRDNAKNTVYLQMNSLKPEDTAVYYCAKDYYRPWYDRPLGYDYWGQGTQVTVSS .
Output: low polyreactivity

Task: I would be grateful if you could share the reported polyreactivity (PSR sort gate) for QVQLVESRGVLVQAGGSVRVSCAASGSTFTFNAMGWYRQAPGKVRELVADITSGGRTNYADSVKGRFTISRDNAKNTVYLQMNSLKPEDTAVYYCAARWWAHEYPGYDSWGQGTQVTVSS .
Output: low polyreactivity

Task: I would be grateful if you could share the reported polyreactivity (PSR sort gate) for QVQLVESGGGLVQAGGSLRLSCAASGRIFGVNAMGWYRQAPGKERELVAAIRYRDGSTYYADSVKGRFIISRDNAKNTVYLQMNSLKPEDTAVYYCNALHQRFYAQPGDYWGQGTQVTVSS .
Output: high polyreactivity

Task: I would be grateful if you could share the reported polyreactivity (PSR sort gate) for QVQLEESAGGLVQAGGSLRLSCAASGFTLYYYSMGWYRKAPGKERELVAAIAVSGTSTYYADSVKGRFTISRDNAKNTVYLQMNSLKPEDTAVYYCNKVFRVYQTFKAWGRDYWGQGTQVTVSS .
Output: high polyreactivity

Task: I would be grateful if you could share the reported polyreactivity (PSR sort gate) for QVQLVESGGGLVKAGGSLRLSCAASGRTFFRNAMGWYRQAPGKEREFVAAINSSGGSTYYADSVKGRFTISRDNAKNTVYFQMNSLKPEDTAVYYCARYHYPFYKPYGFGYWGQGTQVTVSS .
Output: high polyreactivity

Task: I would be grateful if you could share the reported polyreactivity (PSR sort gate) for QVQLVESGGGLVQAGGSLRLICAASGFTFYLYTMGWYRPAPGKERELVASIRRSGGSTYYADSVKGRFTISRDNAKNTVYLQMNSLKPEDTAVYYCAKRTFLVSGPRSYGWYGVYYWGQGTQVTVSS .
Output: high polyreactivity

Task: I would be grateful if you could share the reported polyreactivity (PSR sort gate) for QVQLVESGGGLVQAGGSLRLSCAASGRTFSSYAMGWYRQAPGKERELVAAISSGGSTYYADSVKGRFTISRDNAKNTVYLQMNSLKPEDTAVYYCNRRFYYKIGRGIRYFWGQVTQVTVSS .
Output: high polyreactivity

Task: I would be grateful if you could share the reported polyreactivity (PSR sort gate) for QVLLQETGGGLVQAGGSLRLSCAASGTISTDIRMGWYRLAPGKESEFVASIDCCSTTYYADSVKGRFTISRDNAKYTVYLQMNSLKPEDTAMYYCAAREATEFYLYYWGQGTQVTVSS .
Output: low polyreactivity

Task: I would be grateful if you could share the reported polyreactivity (PSR sort gate) for QVQLVESGGGLVQAGGSLRLSCAASGSIFEPYTMGWYRQAPGKERELVAAITGSGGSTFYADSVKGRFTISRDNAKNTVYLQMNSLKPEDTAVYYCNAYAYPYTDVDYWGQGTQVTVSS .
Output: low polyreactivity

Task: I would be grateful if you could share the reported polyreactivity (PSR sort gate) for QVQLVESGGGLVQAGGSLRLSCAASGRIFVSNVMGWYRQAPGKERELVATITWSDGSTYYADSVKGRFTISRDNAKNTVYLQMNSLKPEDTAVYYCNVDQYTYVDLYWEYYFWGQGTQVTVSS .
Output: low polyreactivity

Task: I would be grateful if you could share the reported polyreactivity (PSR sort gate) for QVQLVESGGGLVQAGGSLRLSCAASGRTFGRNALGWYRQAPGKEREFVAAISRRGDTTYYADSVKGRFTISRDNAKNTVYLQMNSLKPEDTAVYYCNADVIKDRFYWYYYWGQGTQVTVSS .
Output: low polyreactivity

---

assay: yeast display, Sf9 membrane polyspecificity reagent, FACS + sequencing; frameworks hold sequencing errors
property: polyreactivity (PSR sort gate)

Consider the following illustrative entries.
- QVQLVESGGGVVQAGGSLRLSCAASGSIFLGNAMGWYRPAPGKERELVAAITWSGGSTYYADSVKGRFTISRDNAKNTVYLQMNSLKPEDTAVYYCNAYSYVAIRDGGDYWGQGTLVTVSS: low polyreactivity
- QVQLVESGGGLVQAGGSLRLSCAASGNTIIRYPMGWYRQAPGKERELVAAISYSGGRTYYADSVKGRFTISRDNAKNTVYLQMNSLKPEDTAVYYCNAASRYGGDYWGQGTQVTVSS: high polyreactivity
- QVQLVESGGGIVQAGGSLRLSCAASGRTFWGYAMGWYRQAPGKERELVASISGRGGSTYYADSVKERFTISRDTAKNTVYLQINSLQPEDTAVYYCAATYFSVKWYYYWGEGTQVTVSS: high polyreactivity
- QVQLVESGGGLVQAGGSLLLSCAASGRTFAPYAMGWYRQAPGKERELVAAISSGGGNTYYADSVKGRFTISRDNAKNTVYLQMNSMKPEDTAVYYCAKPRARQDFDYWGQGTKVTVSS: high polyreactivity
- QVQLVESGGGLVQAGGSLRLSCAASGSIFETYAMGWYRQAPGKEWELVAAISRTSGRTYYADSVKGRFTISRDNAKNTVYLQMNSLKPDDTAVYYCAAVVRNPGTYDYWGHGTQVTVSS: high polyreactivity
- QVQLVESGGGLVQAGGSLRLSCASSGSTFYNNALGWYRQAPGKERELVAAISNVSTYYADSVKGRFTISRDNAKNTVYLQLISLKPEDTAVYYCAARGLLWYYSWRYYFWGQGTQVTVSS: low polyreactivity
- QVQLVESGGGLVQAGGSLRLSCAASGRTFFWYAMGWYRQAPGKEREFVAAITWRTGSTYYADSVKGRFTISRDNAKNTVYLQMNSLKPEDTAVYYCAAEYPWSYATYYYWGQGTQVTVSS: high polyreactivity
- QVQLVESGGGLVQAGGSLRLSCAASGIIFYRYVMGWYRQAHGKERELVAAINNDGASTHYADSVKGRFTISRDNAKNTVYLQMNSLKPEDTAVYYCATRDSLYYRYWSNNYWGQGTQVTVSS: high polyreactivity

Task: I would be grateful if you could share the reported polyreactivity (PSR sort gate) for QVQLVESGGGLVQAGGSLRLSCDASGNTFSRYAMGWYRQAHGKERELVAAITSSGGSTYYADSVKGRFTISRDNAKNTVYLQMNSLKPEDTAVYYCAATSYYTREHYYYWGQGTQVTVSS .
Output: high polyreactivity

Task: I would be grateful if you could share the reported polyreactivity (PSR sort gate) for QVQLVESGGGLVQAGGSLRLICAASGRTFAINTMGWYRQAPGKERELVATISGSAGNTYYADSVKGRFTISRDNAKNTVYVQMNSLKPEDSAVYSCAARQRKARQIVLLDYWGQGTQVTVSS .
Output: high polyreactivity

Task: I would be grateful if you could share the reported polyreactivity (PSR sort gate) for QVQLVESGGGLVQAGGSLRLSGAASGRTFKHYVMGWYRQAPGKARELVAAYRSGGRTNYADSVKGRFTISRDNAKNTVYLQMNRVKPADTAVYYCAARYFSQYQGAGYDSWGQGTQVTVSS .
Output: high polyreactivity

// provenance: the nanobody polyreactivity screen of Harvey et al. (2022)
